Hey, just so you know, these numbers are from ChEMBL document CHEMBL1201862.

Tested on: ACHN
EXPERIMENT SUMMARY: NCI tumour cell line growth inhibition, 48 h
The source made the active and inactive calls. No stated cut-off is given here; in the data, active = GI50 up to about 1.1 µM and inactive = higher.
Reported values of GI50 for individual entries

| COMPOUND | GI50 |
| --- | --- |
| CC(=O)N/C(=C\c1ccc(/C=C(\NC(C)=O)C2=NC3C(=O)c4ccccc4C(=O)C3N2)cc1)C1=NC2C(=O)c3ccccc3C(=O)C2N1 (stereo not drawn) | 4.1 µM (inactive) |

stdin: Entry `O=C(O)c1cccc2cccc(-c3c4ccc(=O)cc-4oc4cc(O)ccc34)c12` : reported GI50 = ?
stdout: > 100 µM (inactive)

stdin: Entry COC(=O)[C@H](C)[C@H]1CC[C@@](C)([C@H]2CC3C(C)(C)[C@H]4CCC(C)=C[C@H]4C[C@@]3(C)O2)OO1 (stereo partly drawn) : reported GI50 = ?
stdout: 10.4 µM (inactive)

stdin: Entry `COc1ccc(/C=C/c2cc(O)cc(OC)c2)cc1` : reported GI50 = ?
stdout: 19.8 µM (inactive)
